- Assay comment: Half life in male Sprague-Dawley rat at 10 mg/kg, po measured upto 24 hrs by triple quadrupole mass spectrometric analysis
- Type: ADME, organism-based
- Assay setup: in vivo
Value kind: half-life (h)
Answers are plain numbers, in h.

In: Field request: half-life | item: CC(=O)N1CCN(CCOc2cc(=O)oc3ccccc23)CC1
Out: 2.36

----------
- System: J774.A1
- Assay comment: Cytotoxicity against mouse J774.A1 cells assessed as reduction in cell viability at 10 uM measured after 24 hrs by MTT assay
- Format: toxicity, cell-based
- Assay setup: j774.a1, 24 h
Value kind: Activity

INSERT INTO assay_data (mol_smiles, reported) VALUES
  ('O=c1cc(OCCCN2CCN(CCO)CC2)c2ccccc2o1', 'Non-Toxic'),
  ('CC(=O)N1CCN(CCOc2cc(=O)oc3ccccc23)CC1', 'Non-Toxic'),
  ('O=c1cc(OCCOCCN2CCNCC2)c2ccccc2o1', 'Non-Toxic'),
  ('CC(=O)N1CCN(CCCOc2cc(=O)oc3ccccc23)CC1', 'Non-Toxic');

----------
- Assay comment: Half life in male Sprague-Dawley rat at 1 mg/kg, iv measured upto 24 hrs by triple quadrupole mass spectrometric analysis
- Type: ADME, organism-based
- Assay setup: in vivo
Value kind: half-life (min)
Give bare numbers, in min.

In: Record request: half-life value, item CC(=O)N1CCN(CCOc2cc(=O)oc3ccccc23)CC1
Out: 18.6

----------
- Assay comment: Cmax in male Sprague-Dawley rat at 1 mg/kg, iv measured upto 24 hrs by triple quadrupole mass spectrometric analysis
- Format: ADME, organism-based
- Assay setup: in vivo
Value kind: Cmax (ng/mL)
Numbers only, in ng/mL.

In: Reported Cmax, compound CC(=O)N1CCN(CCOc2cc(=O)oc3ccccc23)CC1 : ____
Out: 2030

----------
- Assay comment: Cmax in male Sprague-Dawley rat at 10 mg/kg, po measured upto 24 hrs by triple quadrupole mass spectrometric analysis
- Assay type: ADME, organism-based
- Assay setup: in vivo
Value kind: Cmax
# answer = value followed by unit

In: Give its Cmax value. Item: CC(=O)N1CCN(CCOc2cc(=O)oc3ccccc23)CC1
Out: 1010 ng/mL

----------
- Assay comment: AUC (0 to infinity) in male Sprague-Dawley rat at 10 mg/kg, po measured upto 24 hrs by triple quadrupole mass spectrometric analysis
- Type: ADME, organism-based
- Assay setup: in vivo
Value kind: AUC(0-inf) (ng·h/mL)
Answers are plain numbers, in ng·h/mL.

In: // returns reported AUC(0-inf) for input CC(=O)N1CCN(CCOc2cc(=O)oc3ccccc23)CC1
Out: 3260

----------
- Assay comment: Oral bioavailability in male Sprague-Dawley rat at 10 mg/kg measured upto 24 hrs by triple quadrupole mass spectrometric analysis
- Type: ADME, organism-based
- Assay setup: in vivo
Value kind: bioavailability
State the value with its unit after it.

In: Endpoint output: bioavailability of CC(=O)N1CCN(CCOc2cc(=O)oc3ccccc23)CC1 . Value?
Out: 28.7%

----------
- Tested on: THP-1
- Assay comment: Antiinflammatory activity in LPS-induced human THP-1 cells assessed as inhibition of IL-6 production pretreated for 30 mins followed by LPS stimulation and measured after 24 hrs by ELISA
- Type: functional, cell-based
Value kind: IC50
Write down the value, and be sure its unit follows.

In: IC50 for CC(=O)N1CCN(CCOc2cc(=O)oc3ccccc23)CC1 ?
Out: 6.51 µM
